Data credit: patent US20060063759A1

Listed below: pKi values for each entry.
Biological target: glucocorticoid receptor (Homo sapiens, UniProt P04150)
Sequence (P04150 1-777): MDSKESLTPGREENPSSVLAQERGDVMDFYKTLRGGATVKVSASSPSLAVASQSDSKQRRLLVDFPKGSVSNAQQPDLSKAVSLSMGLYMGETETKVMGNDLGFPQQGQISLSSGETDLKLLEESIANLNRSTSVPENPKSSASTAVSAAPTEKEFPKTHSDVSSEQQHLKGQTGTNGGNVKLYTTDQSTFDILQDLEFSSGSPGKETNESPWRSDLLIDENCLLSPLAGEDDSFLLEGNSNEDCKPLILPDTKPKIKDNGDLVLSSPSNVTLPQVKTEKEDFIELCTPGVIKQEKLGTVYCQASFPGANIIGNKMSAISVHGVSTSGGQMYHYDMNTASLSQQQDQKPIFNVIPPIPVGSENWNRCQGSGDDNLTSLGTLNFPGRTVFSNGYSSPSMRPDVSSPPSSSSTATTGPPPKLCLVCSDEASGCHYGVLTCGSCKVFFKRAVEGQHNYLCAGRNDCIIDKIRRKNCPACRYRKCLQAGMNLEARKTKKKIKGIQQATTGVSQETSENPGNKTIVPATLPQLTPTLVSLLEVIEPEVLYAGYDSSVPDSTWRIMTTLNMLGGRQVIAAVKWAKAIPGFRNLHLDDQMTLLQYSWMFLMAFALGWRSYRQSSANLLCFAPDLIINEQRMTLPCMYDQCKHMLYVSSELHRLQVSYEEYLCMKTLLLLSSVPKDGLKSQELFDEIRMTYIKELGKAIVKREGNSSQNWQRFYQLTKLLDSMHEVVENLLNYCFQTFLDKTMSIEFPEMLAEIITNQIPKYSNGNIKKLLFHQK
pKi: −log10 of the molar value.

Consider the reported pKi for these molecules:
{"Molecule": "O=c1[nH]c2cc(C=C3c4ccccc4CCc4ccccc43)ccc2s1", "pKi": "> 6.30"}
{"Molecule": "COc1ccc2c(c1)/C(=C/c1cccc(NS(C)(=O)=O)c1)c1ccccc1CC2", "pKi": "> 6.30"}
{"Molecule": "CS(=O)(=O)Nc1cccc(C=C2c3ccccc3CCc3cc(O)ccc32)c1 (mixture of isomers)", "pKi": "> 6.30"}

Item: CCCCS(=O)(=O)Nc1ccc(C=C2c3ccccc3CCc3ccccc32)cc1 Test system: glucocorticoid receptor (Homo sapiens, UniProt P04150) Read-out: pKi Value: ?
> 6.30

Follow-up entry: O=c1[nH]c2cc(C=C3c4ccccc4CCc4cc(Cl)ccc43)ccc2o1
> 6.30

Follow-up entry: CN(c1cccc(/C=C2/c3ccccc3COc3c(Cl)cccc32)c1)S(C)(=O)=O
> 6.30

Follow-up entry: O=c1[nH]c2cc(/C=C3\c4ccccc4CCc4cc(F)ccc43)ccc2s1
> 6.30

Follow-up entry: CS(=O)(=O)Nc1cccc(CC2c3ccccc3CCc3ccccc32)c1
> 6.30
